experiment: NCI Yeast Anticancer Drug Screen. Data for the mlh1 rad18 strain (AID 175); details: S. cerevisiae mlh1 rad18 strain growth inhibition; at 50.0 µM; hits give high values
This is part of a sample that, as a whole, favours compounds with a hit. Of some 79,000 tested, about 15% had one in any assay.
Tick Fulfilled if growth inhibition is 90% or greater. Tick Not fulfilled if growth inhibition is less than 90%.

Worked set:
>>> df
                                   compound  assignedcategory
0  CCC(OC(C)=O)C1CC(C(C)C)CCC1C (stereo unspecified)     Not fulfilled
1  NC(CCCCCCCCCCCCC(N)C(=O)c1ccccc1)C(=O)c1ccccc1 (stereo unspecified)     Not fulfilled
2  Nc1cccc(-c2cc[cH-]c2)c1.[Fe+2].c1cc[cH-]c1     Not fulfilled

Here is another compound to look at.
Decide: is the reported value of growth inhibition for O=C1C[C@H]2[C@H](c3ccc(Br)cc3)[C@H]3C(=O)c4ccccc4NC(=O)[C@@H]3[C@@]2(O)c2ccccc2N1 equal to or greater than 90%?
Fulfilled

* * *

test: NCI Yeast Anticancer Drug Screen. Data for the rad14 strain (AID 159);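 further: 0% = growth of vehicle-treated control cultures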; conditions: S. cerevisiae rad14 strain growth inhibition; at 100.0 µM; hits give high values
About 79,000 compounds went through this panel and 15% of them were active in at least one assay; those are over-represented in the sample as a whole.
propertyLabel: growth inhibition (%)
Numbers only, in %.

Sample records with growth inhibition:
>>> print(df.to_string())
                                   compound      propertylabel  unitsofmeasure  endpointvalue
0   COc1ccc(N=c2cc(-c3ccccc3)oc3ccccc23)cc1  growth inhibition               %             -5
1               CC(C)OC(=O)NNc1cc(Cl)ccc1Cl  growth inhibition               %             99
2  CCN(CC)CCNc1ccc2ncn3c4ccc(O)cc4c(=O)c1c23  growth inhibition               %              6

Could you tell me growth inhibition for each of these compounds? They are listed below.
1. CC12CCC(CC(=O)/C1=C(/Br)I)C2(C)C (stereo not drawn)
2. O=C1C(=C2CCCC2)CCC1CN1CCCCC1 (stereo not drawn)

1: 2; 2: 94

* * *

Give growth inhibition for every item shown.
test: NCI Yeast Anticancer Drug Screen. Data for the wt1 strain (AID 149);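 further: 0% = growth of vehicle-treated wt1 cultures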; conditions: S. cerevisiae wt1 strain (SPY 50644) growth inhibition; at 1.2 µM; hits give high values
Compounds without any hit were thinned out: in the full panel of roughly 79,000, 15% have a hit. Calls of active or inactive are those of the source. No stated cut-off is given here; in the data, active means growth inhibition above about 70%; inactive means the rest.

Some entries whose results are on file:
                                  compound      propertylabel   endpointvalue
0  CCN(CC)CCC(=O)Nc1ccc2sc3ccccc3c(=O)c2n1  growth inhibition  -4% (inactive)
1                O=C(C#Cc1ccccc1)Nc1ccccc1  growth inhibition  -1% (inactive)

Please go through the list and note growth inhibition for each compound.
1. CC(/C=C/c1ccc([N+](=O)[O-])o1)=N/N1CC(CN2CCOCC2)OC1=O (stereo unspecified)
2. CC/C(=C(\c1ccccc1)c1ccc(OCC[N+](C)(C)C)cc1)c1ccccc1
3. COC(=O)C(=O)c1c(-c2ccc(Cl)c(Cl)c2)[nH]c2[nH]n(-c3ccccc3)c(=O)c2c1=O

2% (inactive)
-4% (inactive)
-1% (inactive)
